System: HEK-293T
assay-notes: Multiplex assay against HEK293T;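 further: share of the cells with healthy nuclei that show this phenotype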
Type: toxicity, cell-based
condition: human, 24 h, 1 µM, compound concentration 1 uM, replicate 2
Response key: y means Population Tubulin-Different-Phenotype (%) >= 20%; n means Population Tubulin-Different-Phenotype (%) < 20%.

O=C(c1cc2c(cc1F)OC(c1ccc(F)cc1)(c1ccc(Cl)cc1Cl)O2)N1CCOCC1 (stereo not given): y
C=CC(=O)Nc1cccc(Oc2nc(Nc3ccc(N4CCN(C)CC4)cc3OC)ncc2Cl)c1: y
CCCSc1nc(N[C@@H]2C[C@H]2c2ccc(F)c(F)c2)c2nnn([C@@H]3C[C@H](OCCO)[C@@H](O)[C@H]3O)c2n1: y
Cc1nc(N2CC[C@H](O)C2)ncc1-c1cc(C(F)(F)F)cc2[nH]ncc12: n
C=CC(=O)Nc1ccc2[nH]c(=O)n(C3CCN(Cc4ccc(-c5nc6cc[nH]c(=O)c6cc5-c5ccccc5)cc4)CC3)c2c1: n
CNC(=O)Nc1ccc2c(c1)[C@@]1(CC2)OC(=O)N(CC(=O)N(Cc2ccc(F)cc2)[C@@H](C)C(F)(F)F)C1=O: y
Cl.O=C(O)c1cc(-c2ccc(C3CCNCC3)cc2)c2ccc(-c3ccc(C(F)(F)F)cc3)cc2c1: n
CC(C)(C)NC[C@H](O)COc1nsnc1N1CCOCC1: y
CCc1nn(CCCN2CCN(c3cccc(Cl)c3)CC2)c(=O)n1CCOc1ccccc1.Cl [NEFAZODONE HYDROCHLORIDE]: y
CC(C)Oc1ccccc1C(=O)Nc1ccccc1C(=O)Nc1cccc(S(=O)(=O)C(F)(F)F)c1: y

Ask: Entry CC1=C(C(=O)Nc2cc3cn[nH]c3cc2F)C(c2ccc(C(F)(F)F)cc2)CC(=O)N1 (stereo not given) : is its Population Tubulin-Different-Phenotype (%) no less than 20%?
Result: n

Ask: Form field: Population Tubulin-Different-Phenotype (%) at least 20%? Entry: CC(C)CC(=O)Nc1[nH]nc2c1CN(C(=O)C1CCN(C)CC1)C2(C)C
Result: n

Ask: // inclusive: Population Tubulin-Different-Phenotype (%) at least 20%? input: CN1CCN(Cc2ccc(Nc3ncc(Cl)c(Nc4ccccc4S(=O)(=O)N(C)C)n3)cc2)CC1
Result: n

Ask: # bool: Population Tubulin-Different-Phenotype (%) of Cc1ccc2c(c1)c1c(n2CCc2ccc(C)nc2)CCN(C)C1 [LATREPIRDINE] >= 20%
Result: y
